src = patent US7767659B2

Each record here notes measured IC (TGI).
- Test system: SK-BR-3
- experiment-summary: Inhibition of cells growth by colorimetric assay (SRB)
- condition: Homo sapiens, SK-BR-3, 48 h, read-out: SK-BR3 TGI
- Experimental: This form of the assay employs 96 well cell culture microplates of 9 mm diameter (Faircloth, 1988; Mosmann, 1983). Most of the cell lines are obtained from American Type Culture Collection (ATCC) derived from different human cancer types. […] The values for mean +/− SD of data from triplicate wells are calculated. Some parameters for cellular responses can be calculated: GI=growth inhibition, TGI=total growth inhibition (cytostatic effect) and LC=cell killing (cytotoxic effect).
quantity-kind: IC (TGI) (nM)

1) COc1c(C)cc2c(c1O)[C@H]1N[C@@H](C2)[C@H](O)N2C1[C@@H]1SC[C@]3(NCCc4c3[nH]c3ccc(C)cc43)C(=O)OC[C@H]2c2c3c(c(C)c(OC(C)=O)c21)OCO3 (some centres unmarked)
331
2) COc1cc2c(cc1O)CCN[C@]21CS[C@@H]2c3c(OC(C)=O)c(C)c4c(c3[C@H](COC1=O)N1C2C2c3c(cc(C)c(OC)c3O)C[C@@H]([C@@H]1C#N)N2C)OCO4 (some centres unmarked)
94.8
3) CCCCCCCC(=O)Oc1c(C)c2c(c3c1[C@H]1SC[C@]4(NCCc5cc(O)c(OC)cc54)C(=O)OC[C@@H]3N3C1[C@@H]1N[C@@H](Cc4cc(C)c(OC)c(O)c41)[C@@H]3O)OCO2 (some centres unmarked)
154
4) COc1cc2c(cc1O)CCN[C@]21CS[C@@H]2c3c(OC(=O)/C=C/c4ccccc4)c(C)c4c(c3[C@H](COC1=O)N1C2[C@@H]2N[C@@H](Cc3cc(C)c(OC)c(O)c32)[C@@H]1O)OCO4 (some centres unmarked)
29.9
5) C=CCN1[C@@H]2c3c(cc(C)c(OC)c3O)C[C@H]1[C@H](C#N)N1C2[C@@H]2SC[C@]3(NCCc4c3[nH]c3ccc(O)cc43)C(=O)OC[C@H]1c1c3c(c(C)c(OC(C)=O)c12)OCO3 (some centres unmarked)
31.8

* * *

The compounds listed here are annotated with their log10 of GI50.
- Tested on: LNCaP
- experiment-summary: Inhibition of cells growth by colorimetric assay (SRB)
- condition: Homo sapiens, LNCaP, 48 h, read-out: LNCAP GI50
quantity-kind: log10 of GI50 (log10 of the value in nM)

1) C=CCN1[C@@H]2c3c(cc(C)c(OC)c3O)C[C@H]1[C@H](C#N)N1C2[C@@H]2SC[C@]3(NCCc4c3[nH]c3ccc(C)cc43)C(=O)OC[C@H]1c1c3c(c(C)c(OC(C)=O)c12)OCO3 (stereo partly drawn)
1.48
2) COc1cc2c(cc1O)CCN[C@]21CS[C@@H]2c3c(OC(C)=O)c(C)c4c(c3[C@H](COC1=O)N1C2C2c3c(cc(C)c(OC)c3O)C[C@@H]([C@@H]1C#N)N2C)OCO4 (stereo partly drawn)
0.17
3) C=CCN1[C@@H]2c3c(cc(C)c(OC)c3O)C[C@H]1[C@H](C#N)N1C2[C@@H]2SC[C@]3(NCCc4cc(OC(=O)OC(C)(C)C)c(OC)cc43)C(=O)OC[C@H]1c1c3c(c(C)c(OC(C)=O)c12)OCO3 (stereo partly drawn)
0.66
4) COc1c(C)cc2c(c1O)[C@H]1N[C@@H](C2)[C@H](O)N2C1[C@@H]1SC[C@]3(NCCc4c3[nH]c3ccc(O)cc43)C(=O)OC[C@H]2c2c3c(c(C)c(OC(C)=O)c21)OCO3 (stereo partly drawn)
-0.06
5) COc1cc2c(cc1O)CCN[C@]21CS[C@@H]2c3c(OC(C)=O)c(C)c4c(c3[C@H](COC1=O)N1C[C@@H]3Cc5cc(C)c(OC)c(O)c5C(C21)N3C)OCO4 (stereo partly drawn)
2.81
6) C=CCN1[C@@H]2c3c(cc(C)c(OC)c3O)C[C@H]1[C@H](C#N)N1C2[C@@H]2SC[C@]3(NCCc4cc(O)c(OC)cc43)C(=O)OC[C@H]1c1c3c(c(C)c(OC(=O)CCCCCCC)c12)OCO3 (stereo partly drawn)
2.98
7) COC1=C(C)C(=O)C2=C(C1=O)C1C3[C@@H]4SCC(=O)C(=O)OC[C@@H](c5c6c(c(C)c(OC(C)=O)c54)OCO6)N3[C@@H](O)[C@H](C2)N1C (stereo partly drawn)
2.44
8) C=CCN1[C@@H]2c3c(cc(C)c(OC)c3O)C[C@H]1[C@H](C#N)N1C2[C@@H]2SC[C@]3(NCCc4c3[nH]c3ccc(O)cc43)C(=O)OC[C@H]1c1c3c(c(C)c(OC(C)=O)c12)OCO3 (stereo partly drawn)
1.18
9) COc1cc2c(cc1O)CCN[C@]21CS[C@@H]2c3c(OC(=O)/C=C/c4ccccc4)c(C)c4c(c3[C@H](COC1=O)N1C2[C@@H]2N[C@@H](Cc3cc(C)c(OC)c(O)c32)[C@@H]1C#N)OCO4 (stereo partly drawn)
0.36
10) COc1c(C)cc2c(c1O)[C@H]1N[C@@H](C2)[C@H](O)N2C1[C@@H]1SCC(=O)C(=O)OC[C@H]2c2c3c(c(C)c(OC(C)=O)c21)OCO3 (stereo partly drawn)
0.82
11) COc1ccc2[nH]c3c(c2c1)CCN[C@]31CS[C@@H]2c3c(OC(C)=O)c(C)c4c(c3[C@H](COC1=O)N1C2[C@@H]2N[C@@H](Cc3cc(C)c(OC)c(O)c32)[C@@H]1O)OCO4 (stereo partly drawn)
0.01
12) C=CCN1[C@@H]2c3c(cc(C)c(OC)c3O)C[C@H]1[C@H](C#N)N1C2[C@@H]2SC[C@]3(NCCc4c3[nH]c3ccccc43)C(=O)OC[C@H]1c1c3c(c(C)c(OC(C)=O)c12)OCO3 (stereo partly drawn)
1.23

* * *

- Test system: PANC-1
- experiment-summary: Inhibition of cells growth by colorimetric assay (SRB)
- condition: read-out: LC50 PANC-1; PANC-1; SRB, 48 hours exposure
quantity-kind: CC50 (µM)

1) C=CCN1C2Cc3cc(C)c(OC)c(O)c3C1C1C3SCC(NC(C)=O)C(=O)OCC(c4c5c(c(C)c(OC(C)=O)c43)OCO5)N1C2C#N (centres unmarked) [compound 24]
14.5
2) C=CCN1C2Cc3cc(C)c(OC)c(O)c3C1C1C3SCC(NC(=O)CC)C(=O)OCC(c4c5c(c(C)c(OC(C)=O)c43)OCO5)N1C2C#N (centres unmarked) [compound 27]
14.2

* * *

- Tested on: A-549
- experiment-summary: cells
- condition: read-out: GI50 A549; A549; SRB, 48 hours exposure
quantity-kind: GI50 (nM)

1) C=CCN1C2Cc3cc(C)c(OC)c(O)c3C1C1C3SCC(NC(=O)CC)C(=O)OCC(c4c5c(c(C)c(OC(C)=O)c43)OCO5)N1C2C#N (stereo not shown)
62.6
2) COc1c(C)cc2c(c1O)C1C3C4SCC(NC(C)=O)C(=O)OCC(c5c6c(c(C)c(OC(C)=O)c54)OCO6)N3C(C#N)C(C2)N1C(C)=O (stereo not shown)
2930
3) COCCOCOc1c(OC)c(C)cc2c1[C@H]1N[C@@H](C2)[C@H](C#N)N2C1CC1(O)C(=O)C(C)=C3OCOC3=C1[C@@H]2CO[Si](c1ccccc1)(c1ccccc1)C(C)(C)C (stereo partly shown)
1870
4) C=CCN1C2Cc3cc(C)c(OC)c(O)c3C1C1C3SCC(NC(C)=O)C(=O)OCC(c4c5c(c(C)c(OC(C)=O)c43)OCO5)N1C2C#N (stereo not shown)
21.9

* * *

Below, each entry is listed with its recorded IC (TGI).
- System: SK-MEL-28
- experiment-summary: Inhibition of cells growth by colorimetric assay (SRB)
- condition: Homo sapiens, SK-MEL-28, 48 h, read-out: TGI MEL-28
quantity-kind: IC (TGI) (nM)

1. C=CCOc1c(C)c2c(c3c1CC1[C@H]4c5c(cc(C)c(OC)c5O)C[C@@H]([C@H](C#N)N1[C@H]3CO)N4C)OCO2 (stereo partly shown)
1270
2. COC1=C(C)C(=O)C2=C(C1=O)[C@@H]1C3[C@@H]4SC[C@]5(NCCc6c5[nH]c5ccccc65)C(=O)OC[C@@H](c5c6c(c(C)c(OC(C)=O)c54)OCO6)N3[C@@H](C#N)[C@H](C2)N1C (stereo partly shown)
460
3. CCC(=O)NC1CS[C@@H]2c3c(OC(C)=O)c(C)c4c(c3[C@H](COC1=O)N1C2[C@@H]2N[C@@H](Cc3cc(C)c(OC)c(O)c32)[C@@H]1C#N)OCO4 (stereo partly shown)
36.7
4. C=CCN1[C@@H]2c3c(cc(C)c(OC)c3O)C[C@H]1[C@H](C#N)N1C2[C@@H]2SCC(NC(=O)CCCCCCCCCCCCCCC)C(=O)OC[C@H]1c1c3c(c(C)c(OC(C)=O)c12)OCO3 (stereo partly shown)
11600
5. COc1c(C)cc2c(c1O)[C@H]1N[C@@H](C2)[C@H](C#N)N2C1[C@@H]1SCC(NC(C)=O)C(=O)OC[C@H]2c2c3c(c(C)c(OC(C)=O)c21)OCO3 (stereo partly shown)
3.66
6. COc1c(C)cc2c(c1OC(=O)/C=C/c1ccccc1)[C@H]1N[C@@H](C2)[C@H](C#N)N2C1[C@@H]1SCC(NC(=O)C(F)(F)F)C(=O)OC[C@H]2c2c3c(c(C)c(OC(C)=O)c21)OCO3 (stereo partly shown)
60.3
7. COc1c(C)cc2c(c1O)[C@H]1N[C@@H](C2)[C@H](O)N2C1[C@@H]1SCC(NC(C)=O)C(=O)OC[C@H]2c2c3c(c(C)c(OC(C)=O)c21)OCO3 (stereo partly shown)
4.01
8. CCCCCCCCCCCCCCCC(=O)NC1CS[C@@H]2c3c(OC(C)=O)c(C)c4c(c3[C@H](COC1=O)N1C2[C@@H]2N[C@@H](Cc3cc(C)c(OC)c(O)c32)[C@@H]1O)OCO4 (stereo partly shown)
483
9. C=CCN1[C@@H]2c3c(cc(C)c(OC)c3OC(=O)/C=C/c3ccccc3)C[C@H]1[C@H](C#N)N1C2[C@@H]2SCC(NC(=O)C(F)(F)F)C(=O)OC[C@H]1c1c3c(c(C)c(OC(C)=O)c12)OCO3 (stereo partly shown)
11400
10. C=CCN1[C@@H]2c3c(cc(C)c(OC)c3O)C[C@H]1[C@H](C#N)N1C2[C@@H]2SCC(N)C(=O)OC[C@H]1c1c3c(c(C)c(OC(C)=O)c12)OCO3 (stereo partly shown)
603
11. CCCCCCCCCCCCCCCC(=O)NC1CS[C@@H]2c3c(OC(C)=O)c(C)c4c(c3[C@H](COC1=O)N1C2[C@@H]2N[C@@H](Cc3cc(C)c(OC)c(O)c32)[C@@H]1C#N)OCO4 (stereo partly shown)
4140
12. C=CCN1[C@@H]2c3c(cc(C)c(OC)c3O)C[C@H]1[C@H](C#N)N1C2[C@@H]2SC[C@H](NC(=O)c3cc4ccccc4oc3=O)C(=O)OC[C@H]1c1c3c(c(C)c(OC(C)=O)c12)OCO3 (stereo partly shown)
135
13. COc1c(C)cc2c(c1O)[C@@H]1C3[C@@H]4SC[C@]5(NCCc6c5[nH]c5ccccc65)C(=O)OC[C@@H](c5c6c(c(C)c(OC(C)=O)c54)OCO6)N3[C@@H](C#N)[C@H](C2)N1C (stereo partly shown)
55.5
14. C=CCN1[C@@H]2c3c(cc(C)c(OC)c3O)C[C@H]1[C@H](C#N)N1C2[C@@H]2SCC(NC(=O)C(F)(F)F)C(=O)OC[C@H]1c1c3c(c(C)c(OC(C)=O)c12)OCO3 (stereo partly shown)
1770
15. COc1c(C)cc2c(c1O)[C@H]1N[C@@H](C2)[C@H](C#N)N2C1[C@@H]1SCC(NC(=O)C(F)(F)F)C(=O)OC[C@H]2c2c3c(c(C)c(OC(C)=O)c21)OCO3 (stereo partly shown)
2.54
16. C=CCOc1c(C)c2c(c3c1CC1[C@H]4c5c(cc(C)c(OC)c5O)C[C@@H]([C@H](C#N)N1[C@H]3CN)N4C)OCO2 (stereo partly shown)
1150
